Molecular target: Beta-1 adrenergic receptor (Homo sapiens); further: assay procedure not described here
Sequence (P08588 whole entry): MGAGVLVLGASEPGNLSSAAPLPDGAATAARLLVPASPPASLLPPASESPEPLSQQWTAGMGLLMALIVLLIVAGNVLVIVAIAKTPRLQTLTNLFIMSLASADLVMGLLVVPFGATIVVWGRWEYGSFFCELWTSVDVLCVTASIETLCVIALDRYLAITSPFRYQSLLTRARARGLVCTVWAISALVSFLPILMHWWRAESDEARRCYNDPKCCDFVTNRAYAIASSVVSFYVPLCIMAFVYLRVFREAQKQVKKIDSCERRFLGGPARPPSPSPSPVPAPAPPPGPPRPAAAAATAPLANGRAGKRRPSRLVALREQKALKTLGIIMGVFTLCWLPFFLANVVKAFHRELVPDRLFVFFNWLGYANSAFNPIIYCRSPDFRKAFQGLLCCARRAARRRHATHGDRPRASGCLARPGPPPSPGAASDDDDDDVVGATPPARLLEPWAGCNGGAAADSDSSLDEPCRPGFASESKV
Assay type: functional
Recorded Endpoint: AC50

Consider the reported AC50 for these molecules:
Molecule	Test System	AC50
COc1cc2c(cc1OC)C(=O)C(CC1CCN(Cc3ccccc3)CC1)C2 (stereo not given) [DONEPEZIL]	Beta-1 adrenergic receptor (Homo sapiens)	> 10 µM
OCCN1CCN(CCCN2c3ccccc3C=Cc3ccccc32)CC1 [OPIPRAMOL]	Beta-1 adrenergic receptor (Homo sapiens)	> 30 µM
CCCCN1CCCCC1C(=O)Nc1c(C)cccc1C (stereo not given) [BUPIVACAINE]	Beta-1 adrenergic receptor (Homo sapiens)	> 30 µM
Cc1ccc(-c2nc3ccc(C)cn3c2CC(=O)N(C)C)cc1 [ZOLPIDEM]	Beta-1 adrenergic receptor (Homo sapiens)	> 30 µM

Go through the list and state AC50 for each entry.
1. O=C(OCCN1CCOCC1)c1cccnc1Nc1cccc(C(F)(F)F)c1 [MORNIFLUMATE]
2. C1=Cc2cccc(OCC3CNCCO3)c2C1 (stereo not given) [INDELOXAZINE]
3. CC(C(=O)O)c1ccc(N2CC=CC2)c(Cl)c1 (stereo not given) [PIRPROFEN]
4. COC(=O)N[C@H](C(=O)N1CCC[C@H]1c1nc(-c2ccc(-c3ccc(-c4c[nH]c([C@@H]5CCCN5C(=O)[C@@H](NC(=O)OC)C(C)C)n4)cc3)cc2)c[nH]1)C(C)C
5. CCN1CCC[C@H]1CNC(=O)c1cc(S(N)(=O)=O)ccc1OC [LEVOSULPIRIDE]
6. CCC1(C2=CCCCCC2)C(=O)NC(=O)NC1=O [HEPTABARBITAL]

# output
1. > 30 µM
2. > 30 µM
3. > 10 µM
4. > 30 µM
5. > 30 µM
6. > 10 µM

---

Form: system (D(3) dopamine receptor (Homo sapiens)), quantity (AC50), values below. Further: assay procedure not described here.

Consider the reported AC50 for these compounds:
Compound	Recorded Endpoint	Experimental Result
N/N=c1/cc2c(n[nH]1)CCN(C(=O)c1ccccc1)C2	AC50	> 30 µM
NS(=O)(=O)c1cc(-c2nnn[nH]2)c(NCc2cccs2)cc1Cl [AZOSEMIDE]	AC50	> 30 µM
C[N+](C)(C)CC(=O)O	AC50	> 30 µM
O=C1CCC(N2C(=O)c3ccccc3C2=O)C(=O)N1 (stereo unspecified) [THALIDOMIDE]	AC50	> 10 µM
NC(N)=Nc1nc(CSCCC(N)=NS(N)(=O)=O)cs1	AC50	> 10 µM

The record that follows has no AC50 shown yet.
# input Please list AC50 recorded for the compound Oc1ncnc2[nH]ncc12
# output > 10 µM

---

Molecular target: Cannabinoid receptor 1 (Homo sapiens, UniProt P21554); further: assay procedure not described here
Sequence (P21554 whole entry): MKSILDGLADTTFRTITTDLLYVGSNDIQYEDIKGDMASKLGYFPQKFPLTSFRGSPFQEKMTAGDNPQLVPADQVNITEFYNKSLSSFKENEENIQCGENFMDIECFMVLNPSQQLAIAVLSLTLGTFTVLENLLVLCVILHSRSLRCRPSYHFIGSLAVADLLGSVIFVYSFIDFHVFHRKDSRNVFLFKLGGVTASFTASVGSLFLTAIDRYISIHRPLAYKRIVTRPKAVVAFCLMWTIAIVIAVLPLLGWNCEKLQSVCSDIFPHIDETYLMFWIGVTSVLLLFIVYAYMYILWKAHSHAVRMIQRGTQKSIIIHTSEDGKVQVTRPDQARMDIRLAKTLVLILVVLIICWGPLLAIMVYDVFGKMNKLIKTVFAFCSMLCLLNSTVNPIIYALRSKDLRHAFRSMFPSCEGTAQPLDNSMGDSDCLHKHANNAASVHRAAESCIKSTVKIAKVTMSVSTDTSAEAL
Recorded Endpoint: AC50

Consider the reported AC50 for these compounds:
Compound	AC50
CN[C@@H]1[C@H](O)[C@H](NC)[C@H]2O[C@@]3(O)C(=O)C[C@@H](C)O[C@H]3O[C@@H]2[C@H]1O	> 10 µM
CC[C@]1(O)C[C@@H]2CN(CCc3c([nH]c4ccccc34)[C@@](C(=O)OC)(c3cc4c(cc3OC)N(C)[C@H]3[C@@](O)(C(N)=O)[C@H](O)[C@]5(CC)C=CCN6CC[C@]43[C@@H]65)C2)C1	> 30 µM

# input Please list AC50 recorded for the compound CC(C)C(=O)OCC(=O)[C@@]12O[C@H](C3CCCCC3)O[C@@H]1C[C@H]1[C@@H]3CCC4=CC(=O)C=C[C@]4(C)[C@H]3[C@@H](O)C[C@@]12C [CICLESONIDE]
# output 12.1 µM
